This collection of values is drawn from patent US20260193326A1.

pKd values, listed per item
target: T1, AAV2 (adeno-associated virus 2, UniProt P03135 1-735); test: SPR, AAV amine-coupled to CM5 chip;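 note: nanobodies flowed as analyte at seven concentrations spanning 1–100 nM over immobilized AAV (500–800 RU), kinetic constants derived by fitting the binding curves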
T1 construct: also called adeno-associated virus serotype 2
T1 sequence (P03135 whole entry): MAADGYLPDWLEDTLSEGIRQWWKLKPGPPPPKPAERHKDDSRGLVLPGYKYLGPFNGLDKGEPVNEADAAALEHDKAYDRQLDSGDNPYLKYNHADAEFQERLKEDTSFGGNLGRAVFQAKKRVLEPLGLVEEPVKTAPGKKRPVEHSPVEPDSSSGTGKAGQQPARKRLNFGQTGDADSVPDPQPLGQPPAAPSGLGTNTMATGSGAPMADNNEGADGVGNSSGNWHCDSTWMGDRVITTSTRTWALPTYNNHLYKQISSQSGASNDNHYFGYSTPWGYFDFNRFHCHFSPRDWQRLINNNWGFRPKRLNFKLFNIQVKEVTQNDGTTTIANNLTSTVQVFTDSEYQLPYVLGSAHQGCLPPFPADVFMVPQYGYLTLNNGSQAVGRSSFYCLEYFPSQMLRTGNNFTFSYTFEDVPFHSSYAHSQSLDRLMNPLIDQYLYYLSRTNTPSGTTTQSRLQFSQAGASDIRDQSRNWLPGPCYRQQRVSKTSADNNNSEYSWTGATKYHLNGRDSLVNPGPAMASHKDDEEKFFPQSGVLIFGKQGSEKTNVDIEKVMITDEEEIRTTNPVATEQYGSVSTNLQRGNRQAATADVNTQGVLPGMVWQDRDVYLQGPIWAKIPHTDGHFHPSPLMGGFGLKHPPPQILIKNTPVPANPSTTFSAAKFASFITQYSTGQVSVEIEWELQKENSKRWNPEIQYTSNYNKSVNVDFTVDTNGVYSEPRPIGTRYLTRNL
pKd: −log10 of the molar value.
Readout kind: pKd

Binder: A4-056 (VHH) VHH: VQLQESGGGLVQPGGSLRLSCAASGSAFSINTMGWYRQAPGKQREKVAAVTRGGSTNYADSVKGRFTISRDNAKNTVYLQMNSLRPEDTAVYYCHVDEVRQSSWTTSNLWGQGTQVTVSS
Readout kind: pKd
Data value: 6.65
--
Binder: A4-068 (VHH) VHH: VQLQESGGGLVQTGGSLRLSCAASGRAFSLNTMGWYRQAPGKWRELVATVTRGGSTNYAGSVKGRFTISRDNAKNTVYLQMNNLRPEDTAVYYCHVDEVRESSWTTSNLWGQGTQVTVSS
Readout kind: pKd
Data value: 7.92
--
Binder: A4-083 (VHH) VHH: VQLQESGGGLVQTGGSLKLSCAASGSRFSLNTMGWYRQAPRKQREFVAAVTRGGNTNYGDFVKGRFTISRDNAKNTVYLQMNSLRPEDTAVYYCHVDELRESSWTTSNLWGQGTQVTVSS
Readout kind: pKd
Data value: 6.03
--
Binder: A4-076 (VHH) VHH: VQLQESGGGLVHSGGSLRLSCAASGSMFSLNTMGWYRQAPGKQRELVATITRGGGTSYADSVKGRFTISRDNAKNTVYLQMNSLRPEDTAVYYCHVDELRQSSWTTSNLWGQGTQVTVSS
Readout kind: pKd
Data value: 7.13
